biological target: PfRuvB3; assay: Effect of DNA helicase inhibitors on PfRuvB3 unwinding (helicase) activity; format: biochemical, Plasmodium falciparum; conditions: recombinant PfRuvB3; M13-17-mer duplex DNA pre-incubated with 0.1 to 50 μM drug for 10 min; 37 °C 90 min
pIC50: −log10 of the molar value.

compound | pIC50
C[C@@]1(CO)[C@H](O)CC[C@@]2(C)[C@H]1CC[C@H]1C[C@@H]3C[C@@]12CC[C@]3(O)CO [aphidicolin] | < 4.30
O=C1c2c(O)ccc(O)c2C(=O)c2c(NCCNCCO)ccc(NCCNCCO)c21 [mitoxantrone] | < 4.30
O=c1c(-c2ccc(O)cc2)coc2cc(O)cc(O)c12 [genistein] | < 4.30
